Attribution: the supplement of paper PMC6555819

test system: PPARg:RXRa DBDmut IVT, anti-RXR (DBD mutation: RXRa K156A/R161A, NR concentration 270 nM, RXRa partner concentration 90 nM); assay: PBM binding z-score (relative to random genomic background probes); higher = stronger binding; sequences stand for … in GC…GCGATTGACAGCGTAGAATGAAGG
For each record, write down the corresponding PBM binding z-score.
Answer field: number only, no words.

Input "CGAACTAGGTCACCACGACAGTGAAGAGGTTGGA" . Output PBM binding z-score: 8.39

Noted for "CCGAGTAGGTTACGAGGGGGCATTAAGTGCGAAT" : its PBM binding z-score reads 4.89

Value of measured PBM binding z-score for the entry "ATCGAAAGGTCGTGAGGTGACTATACAGAAAGGC" : 0.761

Sure, the documented PBM binding z-score for "CGAACTAAGTCAAAGGACAGTGAAAGGCGACGTA" is 0.998

Entry "AGAATGAGGTTACCAGAGATCAGGGAAACGCTTG" ; PBM binding z-score = 3.82

Data point: "CAAACTAGGTCACAGAGGTCAAACTCCGTGCGTA" ; PBM binding z-score = 8.63

The recorded PBM binding z-score for entry "CTATGGAGGTTAAGGGGGTCATTCAGTTTGAAAG" equals 4.65

get_value(item= "ATATGTAGGTTAGGATCATTCAGAAAGTAGGGAA" , readout=PBM binding z-score) returns 6.17

Per the records, this sequence ( "CCGCGTAGGTTACGAGGGGGCATTCAGTGCGAAT" ) has PBM binding z-score equal to 1.02

Record summary for "CCGACTGGGGCAAAGGTCACCATACTCAGTACGA" : reported PBM binding z-score = 5.43

Sure, the documented PBM binding z-score for "GCTAGTAGGTCAGTAAAAGGTCACACACCGGTCG" is 7.2

Record summary for "CAAACTAGGTCAAAGGTCAAAGTAGAGCCAACCA" : reported PBM binding z-score = 8.23

Recorded PBM binding z-score (sequence "AATACAGGGTCATTAGGCCAGAGTAGGTACGAAT" ): 3.37

Record "TAGCCTAGGTCATGGGCCTGTATACCACGCGAAC" . Reported PBM binding z-score: 1.69

Summary for this sequence, "CGTCAAAGTTCAACTAAGGTAACGTATAGCACGC" : PBM binding z-score is 0.646

PBM binding z-score reading for "CGTCCAAGGTCAATGCTAGGCCAGTGAAAGCATT" : 2.99

// sample "CAAACTAGGTCACCGGAAGGTCAAAGTTCGCATG" , its PBM binding z-score was 8.66

Reported PBM binding z-score of "GATACAGGGTCAGCTAGAGGTCAGAGTATGGAAA" : 1.65

Noted for "ATCGAAAGGTGGACGAGGTGAGTATACACCGTTT" : its PBM binding z-score reads -0.328

# PBM binding z-score (sequence: "CGAACTACGTCACCAGGACAGTGAAGAGGTTGGA" ) is 0.112

For record "CCTTACGGGTCAGGAGGTTATAGCACGACGAGCG" the listed PBM binding z-score is 1.26

Per the records, this sequence ( "CAAACTAGGTCACCAGGACAGTGAAGAGGTTGGA" ) has PBM binding z-score equal to 8.41

// PBM binding z-score value for "TTACCAAGGTGAAAGGTCGGTGATGCACGCCTTG" : 2.41

Record summary for "CGTGCAAGGTCAGAGAGGTCAGTGAATGCCGAGT" : reported PBM binding z-score = 2.79

Sample "GCTAGTTTGTCAGTAAAAGGTCACACACCGGTCG" ; PBM binding z-score observed: 0.319

sequence "CGTCCAAGCTCAGCAGGTCAGTGAAAGCGACGTG" , PBM binding z-score observed: -0.243

----------
I'd be grateful if you could share measured PBM binding z-score for these entries.
tested on: LXRb:RXRa (NR concentration 270 nM, RXRa partner concentration 90 nM); assay: PBM binding z-score (relative to random genomic background probes); higher = stronger binding; sequences stand for … in GC…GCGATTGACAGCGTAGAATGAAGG

Memo: "CGAACTAGGTCACCAGGAAAGTGAAGAGGTTGGA" , reported PBM binding z-score: 1.69

In plain terms, "CCTACTGGGCGATTCAGAGGTCATTGATCATATG" has a documented PBM binding z-score of 3.09

Entry "ATATGTAGGTTCGGGTCATTCAGAAAGTAGGGAA" ; PBM binding z-score = 3.38

Entry "CCTAGTAGGTTACGAGGGGGCATTCAGTGCGAAT" , PBM binding z-score reported as 6.51

Record summary for "CGAACTAAGTCATTGACAGGACAGTGAATAGTAA" : reported PBM binding z-score = -0.347

Value of measured PBM binding z-score for the entry "TCGAGTAGGTTACGGGGGCATTCAAGGATGAAGA" : 4.72

----------
I'd be grateful if you could share measured PBM binding z-score for these entries.
tested on: PPARa:RXRa (NR concentration 270 nM, RXRa partner concentration 90 nM); assay: PBM binding z-score (relative to random genomic background probes); higher = stronger binding; sequences stand for … in GC…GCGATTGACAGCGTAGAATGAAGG
API doc: respond with a numeric literal and nothing else, no unit.

Per the record, "ATCAAAAGGTCGAAGGTGAGTATACCCACCCGAA" has PBM binding z-score of 5.02

Sample "CCTACTGGGCCAAAAAGGTAATTGATGCCGATAA" ; PBM binding z-score observed: 0.543

// sample "ATCGAAAGGTCGTGAGGTGAGTACACAGAAAGGC" , its PBM binding z-score was 5.02

PBM binding z-score reading for "GGAACGAGGGCAAAGGTGATAGCATCTGTCGACG" : 4.97

Entry "ATATGTAGTTTAGGGTCATTCAGAAAGTAGGGAA" , PBM binding z-score reported as 5.14

Lookup result for "CGAACTAGGTCACCAGGACAGTTAAGAGGTTGGA" ; measured PBM binding z-score: 5.2

response.value for "CGAACTAGGTCACCAGGATAGTGAAGAGGTTGGA" (field: PBM binding z-score) = 5.37

Recorded PBM binding z-score (sequence "TTACCAAGGTGAAAGGTCGTTGAAGCACGCCTTG" ): 5.82

// recorded PBM binding z-score for "TCGAGTAGGTTACGAGGGCATTCAGGGATGAAGA" : 2.58

Notebook: "TCGAGTAGGTTACGGGGGCATTCTGGGATGAAGA" , PBM binding z-score read as 4.23

Noted for "CCGAGTAGGTTACGAGGGGGCAGTCAGTGCGAAT" : its PBM binding z-score reads 3.14

// PBM binding z-score value for "CGAACTAGGTCAAAGAACAGTGAAAGGCGACGTA" : 4.66

Kindly note the recorded PBM binding z-score for "GATCCAGGGTCAGCTAGAGGCCAGAGTATGGAAA" , which is 4.38

Looking up "ATCGAAAGGTCGAAGGTCAGTATACCCACCCGAA" , I found its PBM binding z-score recorded as 5.61

PBM binding z-score reading for "CGTCAAAGTTCAACTAAGTTAACGTAAAGCACGC" : 4.99

Noted for "CCGACTAGGTTACGAGGGGGCATTCAGTGCGAAT" : its PBM binding z-score reads 3.16

# sequence "CCTACTGGGCCAAAGGTCATAGATTCCAATGCTC" ; its PBM binding z-score = 6.34

PBM binding z-score reported for this sequence "AGTCAAAGGTCACTAGGTAACGTAAGATTCAGCT" : 6.42

"CTATCTAGGTTAAGGGGGTCATTCAGTTTGAAAG" yielded PBM binding z-score of 5.95

Lab note: measured PBM binding z-score of "CTATGTAGGTTAAGGGGGTCAATCAGTTTGAAAG" was 5.86

// PBM binding z-score lookup, sequence = "CGAACTAGGTCACCAGGACAGTGAGGAGGTTGGA" , result: 4.93

Record "CGTCTAAGGTCAAAGGTCAGTGAAGAGATGACGG" . Reported PBM binding z-score: 7.45

"TCGAGTGGGTTACGGGGGCATTCAGGGATGAAGA" yielded PBM binding z-score of 4.26

Just so you know, measured PBM binding z-score for "ACTTACGGGTCAAGGAGGTTATAGCACGCGTATA" came out at 5.72

Entry "CTGAGTAGGTTACGAGGGGGCATTCAGTGCGAAT" — recorded PBM binding z-score = 3.73

# PBM binding z-score (sequence: "CCTACTGGGCCACGAAAGGTAATTGATTCAGTGA" ) is 1.1

----------
system: PXR:RXRa (NR concentration 270 nM, RXRa partner concentration 90 nM); assay: PBM binding z-score (relative to random genomic background probes); higher = stronger binding; sequences stand for … in GC…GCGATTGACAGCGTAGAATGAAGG
Given measured PBM binding z-score, output y if it is greater than or equal to 3 and n if not.

Determine whether measured PBM binding z-score meets or exceeds 3 for "CTATGTAGGTTAAGGGGGTCATTCAGTTTGAAAG" y

Check if PBM binding z-score >= 3 (inclusive). Item: "CGAACTAGGTCACCAGTACAGTGAAGAGGTTGGA" n

Hi team, for "CAAACTAGGTCACAGAGGTCAACGTCCGTGCGTA" , is the recorded PBM binding z-score at or above 3? y

Form field: PBM binding z-score at least 3? Entry: "TAGCCTAGGTCAGATCGGGCGAGTATACGCTATA" n

Answer whether PBM binding z-score of "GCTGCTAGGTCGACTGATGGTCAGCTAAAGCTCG" is greater than or equal to 3. n

Could you please find out whether "CGTCAAAGTTCACCTAAGGTAACGTAAAGCACGC" has PBM binding z-score that meets 3 or exceeds it? y

Could you please find out whether "CCTAGCCGGCCAATCTGGGTCACTCAAGGCTTGA" has PBM binding z-score that meets 3 or exceeds it? n

# bool: PBM binding z-score of "CTATGTAGGTGAAGGGGGTCATTCAGTTTGAAAG" >= 3 y

Say whether "TTACCAAGGTGAAAGGTCGTTGAGGCACGCCTTG" shows PBM binding z-score of 3 or more. y

In plain terms: is recorded PBM binding z-score at least 3 for "TCGAGTAGGTTACGGGGGCATTCGGGGATGAAGA" ? y

Answer whether PBM binding z-score of "CGAACTAGGTCATCGAGGACAGTGAATACATTGA" is greater than or equal to 3. n
